Tested on: HIV-1NL4-3 Wild Type
Test: Luminescence reduction assay, MT4 cells infected with HIV-1NL4-3 luciferase reporter virus, wild type
Assay type: cell-based
Conditions: Human immunodeficiency virus 1, MT4, MT4 cells, 2% FCS
assay-readout: EC50 (µM)
Please respond with the number in µM and leave the unit unwritten.

// below: answered molecules
{"molecule": "Cc1cc(-n2nc(C(=O)N3CCSC3)cc2-c2cc(F)cc(Cl)c2)ccn1", "experimental-system": "HIV-1NL4-3 Wild Type", "value-observed": 0.439}
{"molecule": "O=C(c1cc(-c2cc(F)cc(OC(F)(F)F)c2)n(-c2ccnc(Cl)c2)n1)N1CCSC1", "experimental-system": "HIV-1NL4-3 Wild Type", "value-observed": 0.58}
{"molecule": "O=C(c1cc(-c2cc(Br)cc(OC(F)(F)F)c2)n(-c2cccnc2)n1)N1CCS(=O)(=O)C1", "experimental-system": "HIV-1NL4-3 Wild Type", "value-observed": 0.007}
{"molecule": "O=C(c1cc(-c2cc(F)cc(OCC(F)(F)F)c2)n(-c2cccnc2)n1)N1CC[S+]([O-])C1 (racemic)", "experimental-system": "HIV-1NL4-3 Wild Type", "value-observed": 0.018}

Documented EC50 of "O=C1CN(C(=O)c2cc(-c3cc(F)cc(Br)c3)n(-c3ccnc(Cl)c3)n2)CN1" : 0.005

Entry under test: "O=C1CN(C(=O)c2cc(-c3cncc(F)c3)n(-c3ccc(F)c(Cl)c3)n2)CN1" . Its EC50 was 0.018

EC50 measured on "O=C1CN(C(=O)c2cc(-c3cc(Br)cc(OC(F)(F)F)c3)n(-c3cncc(F)c3)n2)CCN1" = 0.095

----------
Test system: HIV-1LAI Wild Type
Assay: AlamarBlue viability assay, HIV-1LAI-infected MT4 cells
Type: cell-based
Settings: Human immunodeficiency virus 1, MT4, MT4 cells, 10% FCS
assay-readout: EC50 (µM)
Use µM as the unit, but write only the number.

{"compound": "COc1cc(OC(F)(F)F)cc(-c2cc(C(=O)N3CCNC(=O)C3)nn2-c2cccnc2)c1 [Example 85]", "experimental-system": "HIV-1LAI Wild Type", "measurement-unit": "µM", "EC50": 0.302}
{"compound": "O=C1CN(C(=O)c2cc(-c3cc(F)cc(Br)c3)n(-c3ccnc(Cl)c3)n2)CCN1 [Example 93]", "experimental-system": "HIV-1LAI Wild Type", "measurement-unit": "µM", "EC50": 0.137}
{"compound": "O=C1CN(C(=O)c2cc(-c3cc(F)cc(OC(F)F)c3)n(-c3cccnc3)n2)CN1 [Example 66]", "experimental-system": "HIV-1LAI Wild Type", "measurement-unit": "µM", "EC50": 0.083}
{"compound": "O=C1CN(C(=O)c2cc(-c3cncc(OC(F)F)c3)n(-c3ccc(F)c(Cl)c3)n2)CN1 [Example 105]", "experimental-system": "HIV-1LAI Wild Type", "measurement-unit": "µM", "EC50": 0.116}
{"compound": "O=C1CN(C(=O)c2cc(-c3cc(Br)cc(OC(F)(F)F)c3)n(-c3ccnc(C(F)(F)F)c3)n2)CN1 [Example 50]", "experimental-system": "HIV-1LAI Wild Type", "measurement-unit": "µM", "EC50": 1.86}
{"compound": "O=C1CN(C(=O)c2cc(-c3cc(Br)cc(OC(F)(F)F)c3)n(-c3cncc(Cl)c3)n2)CN1 [Example 42]", "experimental-system": "HIV-1LAI Wild Type", "measurement-unit": "µM", "EC50": 0.247}
{"compound": "O=C1CN(C(=O)c2cc(-c3cc(F)cc(Cl)c3)n(-c3cccnc3)n2)CCN1 [Example 4]", "experimental-system": "HIV-1LAI Wild Type", "measurement-unit": "µM", "EC50": 0.108}
{"compound": "O=C1CN(C(=O)c2cc(-c3cc(Br)cc(OC(F)(F)F)c3)n(-c3cccnc3)n2)CN1 [Example 28]", "experimental-system": "HIV-1LAI Wild Type", "measurement-unit": "µM", "EC50": 0.044}
{"compound": "O=C(c1cc(-c2cc(Cl)cc(OC(F)(F)F)c2)n(-c2cccnc2)n1)N1CC[S+]([O-])C1 (racemic) [Example 78]", "experimental-system": "HIV-1LAI Wild Type", "measurement-unit": "µM", "EC50": 0.367}
{"compound": "O=C(c1cc(-c2cc(Cl)cc(OC(F)F)c2)n(-c2cccnc2)n1)N1CCSC1 [Example 82]", "experimental-system": "HIV-1LAI Wild Type", "measurement-unit": "µM", "EC50": 0.348}

The reported EC50 of the compound O=C(c1cc(-c2cc(Cl)cc(OC(F)F)c2)n(-c2cccnc2)n1)N1CCS(=O)(=O)C1 [Example 83] was 0.089

Recorded result, O=C(c1cc(-c2cc(Br)cc(OC(F)(F)F)c2)n(-c2ccc(Cl)nc2)n1)N1CCSC1 [Example 36] , EC50: 2.37

Briefly, EC50 measured for O=C1CN(C(=O)c2cc(-c3ccnc(Cl)c3)n(-c3ccc(F)c(Cl)c3)n2)CCN1 [Example 113] : 0.233

O=C1CN(C(=O)c2cc(-c3cc(Br)cc(OC(F)(F)F)c3)n(-c3cncc(F)c3)n2)CCN1 [Example 45] has a reported EC50 of 0.55

EC50 reported for this compound O=C1CN(C(=O)c2cc(-c3cc(Br)cc(OC(F)(F)F)c3)n(-c3ccnc(Cl)c3)n2)CCN1 [Example 49] : 0.23

// EC50 value for O=C1CN(C(=O)c2cc(-c3cc(Br)cc(OC(F)(F)F)c3)n(-c3ccc(F)nc3)n2)CCN1 [Example 40] : 0.213
